Could you please report measured protein stability index for the items listed next?
B1: GAGE1 (parent)
chain: QPPEMIGPMRPEQFSDEVEPATPE

Variants of: B1
measurementDescription: protein stability index of a GFP-peptide fusion (GPS, HEK-293T) (PSI 1-6); higher = more stable;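 further: lentivirally expressed fusions sorted by FACS into six bins by GFP to DsRed ratio, PSI derived from sequencing read proportions per bin multiplied by bin number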
settings: c terminus: a fixed tail appended
Give bare numbers.

[[record]]
variantdescriptor = "E12G"
experimentalvalue = 5.01

[[record]]
variantdescriptor = "P3A"
experimentalvalue = 5.73

[[record]]
variantdescriptor = "G7Q"
experimentalvalue = 5.69

[[record]]
variantdescriptor = "P8E"
experimentalvalue = 5.86

[[record]]
variantdescriptor = "P11C"
experimentalvalue = 5.5

[[record]]
variantdescriptor = "E17C"
experimentalvalue = 4.91

[[record]]
variantdescriptor = "V18M"
experimentalvalue = 4.75

[[record]]
variantdescriptor = "S15T"
experimentalvalue = 5.27

[[record]]
variantdescriptor = "I6M"
experimentalvalue = 5.59

[[record]]
variantdescriptor = "P20I"
experimentalvalue = 4.96


# map each variant to its protein stability index
1. A21N
2. V18Q
3. M9D
4. V18E
5. V18H
6. P2S
7. D16V

1. 4.29
2. 5.35
3. 5.82
4. 4.96
5. 5.26
6. 4.65
7. 5.54
